Numbers sourced from ChEMBL document CHEMBL3885861.

species: Rattus norvegicus; experiment: Open TG-GATES - Regimen: Single; assay type: toxicity, organism-based, Sprague-Dawley; set-up: regimen Single, gender Male, age 6 weeks; details: in vivo, po, 100 mg/kg, 9 h, tissue Plasma, route gavage, dose level Low
Threshold check on K: strictly below 4 meq/L is criterion met; on or above 4 meq/L is criterion not met.

O=C(OC[C@H]1O[C@@H](OC(=O)c2cc(O)c(O)c(OC(=O)c3cc(O)c(O)c(O)c3)c2)[C@H](OC(=O)c2cc(O)c(O)c(OC(=O)c3cc(O)c(O)c(O)c3)c2)[C@@H](OC(=O)c2cc(O)c(O)c(OC(=O)c3cc(O)c(O)c(O)c3)c2)[C@@H]1OC(=O)c1cc(O)c(O)c(OC(=O)c2cc(O)c(O)c(O)c2)c1)c1cc(O)c(O)c(OC(=O)c2cc(O)c(O)c(O)c2)c1 criterion not met
Cc1nnc2n1-c1ccc(Cl)cc1C(c1ccccc1Cl)=NC2 criterion not met
CNC(=C[N+](=O)[O-])NCCSCc1ccc(CN(C)C)o1 criterion met
COC(=O)C1=C(C)NC(C)=C(C(=O)OC)C1c1ccccc1[N+](=O)[O-] criterion not met
